# Tgt: Lck (Homo sapiens, UniProt P06239)
# Sequence (P06239 whole entry, species assumed): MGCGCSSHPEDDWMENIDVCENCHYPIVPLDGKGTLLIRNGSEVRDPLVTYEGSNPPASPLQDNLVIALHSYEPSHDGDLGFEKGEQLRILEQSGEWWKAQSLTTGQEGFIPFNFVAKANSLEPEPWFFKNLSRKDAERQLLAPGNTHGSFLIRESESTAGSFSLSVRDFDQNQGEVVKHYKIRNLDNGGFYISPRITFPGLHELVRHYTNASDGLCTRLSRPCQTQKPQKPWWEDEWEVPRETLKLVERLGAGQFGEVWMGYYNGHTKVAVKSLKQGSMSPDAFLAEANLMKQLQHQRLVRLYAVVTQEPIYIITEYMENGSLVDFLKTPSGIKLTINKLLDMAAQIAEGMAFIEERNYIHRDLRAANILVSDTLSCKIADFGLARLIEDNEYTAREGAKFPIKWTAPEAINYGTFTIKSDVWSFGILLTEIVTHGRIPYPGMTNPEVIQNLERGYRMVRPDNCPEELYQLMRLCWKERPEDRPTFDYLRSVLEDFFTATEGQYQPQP
Property name: IC50

Exercise: GET /values?readout=IC50&item= NC(=S)n1nc(-c2ccc([N+](=O)[O-])cc2)c(/N=N/c2cccc(Cl)c2)c1O
Key: > 20 µM

###

# System: SIV quasispecies ΔB670
# Run description: SIV replication in CEM-174 cells
# Type: cell-based
# Condition details: Simian immunodeficiency virus, CEM174, 120 h, read-out: IC50, SIV replication
Property name: IC50

Exercise: Find the measured IC50: item NC(=S)n1nc(-c2ccc([N+](=O)[O-])cc2)c(/N=N/c2cccc(Cl)c2)c1O , target or system SIV quasispecies ΔB670.
Key: ~1 µM

Hello, the source for this data is paper PMC3559019, in case you need it.
